Source of measurements: ChEMBL document CHEMBL4359898

# System: HT-29
# assay-comment: Cytotoxicity against human HT-29 cells assessed as reduction in cell viability incubated for 72 hrs by MTT assay
# test-settings: HT-29, 72 h
observation-type: IC50

Example results:
Cc1ccc2nc(NC(=O)c3cn(-c4ccccc4)nc3-c3ccccc3)sc2c1    > 50 µM
COc1ccc2nc(NC(=O)c3cn(-c4ccccc4)nc3-c3ccccc3)sc2c1    > 50 µM

Assay HT-29, sample COc1ccc(-c2nn(-c3ccccc3)cc2C(=O)Nc2nc3ccc(OC)cc3s2)cc1 , IC50 read: > 50 µM

* * *

# System: A549
# assay-comment: Cytotoxicity against human A549 cells assessed as reduction in cell viability incubated for 72 hrs by MTT assay
# test-settings: A549, 72 h
pIC50: −log10 of the molar value.
Criterion: pIC50 meeting or surpassing 5. Met: MET. Not met: NOT MET.

COc1ccc2nc(NC(=O)c3cn(-c4ccccc4)nc3-c3ccccc3)sc2c1    NOT MET
COc1ccc(-c2nn(-c3ccccc3)cc2C(=O)Nc2nc3ccc(OC)cc3s2)cc1    NOT MET
O=C(Nc1nc2ccc(Cl)cc2s1)c1cn(-c2ccccc2)nc1-c1ccc(Cl)cc1    MET
Cc1ccc2nc(NC(=O)c3cn(-c4ccccc4)nc3-c3ccccc3)sc2c1    NOT MET

Query molecule follows.
Dear colleague, could you confirm whether Cc1ccc2nc(NC(=O)c3cn(-c4ccccc4)nc3-c3ccc(F)cc3)sc2c1 has pIC50 at or above 5?
NOT MET
